Each recorded value in this set is attributed to patent US7105520B2.

# systemUnderTest: integrin α 4β1 (Homo sapiens, UniProt P05556+P13612)
# Construct: cell strain Jurkat (ATCC TIB-152) of human T cells, known to express integrin α 4β1
# Sequence (P13612 34-1032): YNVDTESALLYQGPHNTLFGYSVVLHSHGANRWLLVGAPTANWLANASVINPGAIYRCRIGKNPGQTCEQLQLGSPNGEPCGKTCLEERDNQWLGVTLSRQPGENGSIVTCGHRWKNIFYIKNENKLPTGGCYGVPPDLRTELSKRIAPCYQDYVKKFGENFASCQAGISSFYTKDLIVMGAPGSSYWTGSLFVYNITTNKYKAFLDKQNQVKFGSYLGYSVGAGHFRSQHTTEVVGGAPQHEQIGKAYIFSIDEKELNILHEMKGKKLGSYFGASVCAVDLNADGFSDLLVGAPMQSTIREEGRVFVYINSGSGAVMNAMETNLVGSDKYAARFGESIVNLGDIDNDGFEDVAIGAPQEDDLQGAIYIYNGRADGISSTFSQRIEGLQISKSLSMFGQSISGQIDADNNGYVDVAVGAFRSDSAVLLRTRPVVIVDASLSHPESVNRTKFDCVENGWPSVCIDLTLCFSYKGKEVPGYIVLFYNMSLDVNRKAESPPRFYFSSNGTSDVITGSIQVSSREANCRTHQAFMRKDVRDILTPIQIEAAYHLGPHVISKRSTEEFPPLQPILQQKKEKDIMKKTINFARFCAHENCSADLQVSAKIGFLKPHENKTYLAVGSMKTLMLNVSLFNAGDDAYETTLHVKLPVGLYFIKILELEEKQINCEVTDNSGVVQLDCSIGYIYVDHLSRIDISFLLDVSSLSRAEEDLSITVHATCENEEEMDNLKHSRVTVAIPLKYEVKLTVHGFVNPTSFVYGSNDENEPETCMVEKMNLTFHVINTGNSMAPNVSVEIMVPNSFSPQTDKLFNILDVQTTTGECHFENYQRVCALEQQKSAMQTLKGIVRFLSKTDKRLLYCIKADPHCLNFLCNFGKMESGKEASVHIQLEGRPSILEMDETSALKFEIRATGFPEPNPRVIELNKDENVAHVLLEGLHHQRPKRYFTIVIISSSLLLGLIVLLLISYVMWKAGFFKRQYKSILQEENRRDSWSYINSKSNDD
# Sequence (P05556 21-798): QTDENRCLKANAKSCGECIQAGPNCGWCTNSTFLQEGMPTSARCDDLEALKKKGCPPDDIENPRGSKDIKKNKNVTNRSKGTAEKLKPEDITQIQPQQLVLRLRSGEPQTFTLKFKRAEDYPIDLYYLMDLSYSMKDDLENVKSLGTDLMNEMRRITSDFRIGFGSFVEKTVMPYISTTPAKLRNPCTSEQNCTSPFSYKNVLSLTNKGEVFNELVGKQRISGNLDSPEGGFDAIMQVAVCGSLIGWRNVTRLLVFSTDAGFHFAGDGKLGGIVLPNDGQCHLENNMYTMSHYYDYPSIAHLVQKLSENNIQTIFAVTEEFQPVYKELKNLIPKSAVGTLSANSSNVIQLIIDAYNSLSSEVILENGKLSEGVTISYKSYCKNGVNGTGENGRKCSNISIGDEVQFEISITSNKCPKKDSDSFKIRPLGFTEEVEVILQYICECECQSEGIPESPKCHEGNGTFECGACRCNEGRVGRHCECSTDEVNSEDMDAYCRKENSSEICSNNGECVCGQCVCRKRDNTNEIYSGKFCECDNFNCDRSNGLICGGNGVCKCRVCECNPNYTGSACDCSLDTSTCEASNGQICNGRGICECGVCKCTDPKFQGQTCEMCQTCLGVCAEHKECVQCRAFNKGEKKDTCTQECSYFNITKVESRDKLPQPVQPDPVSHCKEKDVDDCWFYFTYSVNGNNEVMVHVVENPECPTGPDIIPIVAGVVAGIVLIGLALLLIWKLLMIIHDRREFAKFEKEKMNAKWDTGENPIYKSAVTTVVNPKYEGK
# assaySummary: VCAM antagonistic activity (VCAM-1/α4β1 binding assay), Jurkat cells binding to VCAM-1
# recordedConditions: Jurkat cells (human T cells) binding to recombinant human VCAM-1; room temperature, 30 minutes; read-out: VCAM-1/α 4 β 1 linking antagonization activity IC50
readoutKind: IC50 (µM)

Record excerpt, results attached:
INSERT INTO measurements (compound, unitinfo, measuredresult) VALUES
  ('CC(C)NCCN(c1ccc([N+](=O)[O-])c(C(=O)NC(Cc2ccc(NC(=O)c3snnc3-c3ccccc3)cc2)C(=O)O)c1)C(C)C (stereo not shown)', 'µM', 2.4),
  ('CCCNCCCCN(CCC)c1ccc([N+](=O)[O-])c(C(=O)NC(Cc2ccc(OCc3c(Cl)cccc3Cl)cc2)C(=O)O)c1 (stereo not shown)', 'µM', 3.7),
  ('O=C(NC(Cc1ccc(OCc2c(Cl)cccc2Cl)cc1)C(=O)O)c1ccc(N2CCNCC2)c([N+](=O)[O-])c1 (stereo not shown)', 'µM', 4);

(a) CCNCCN(CC)c1ccc([N+](=O)[O-])c(C(=O)NC(Cc2ccc(OCc3c(Cl)cccc3Cl)cc2)C(=O)O)c1 (stereo not shown)
(b) CCNC/C=C/CN(CC)c1ccc([N+](=O)[O-])c(C(=O)NC(Cc2ccc(OCc3c(Cl)cccc3Cl)cc2)C(=O)O)c1 (stereo not shown)
(c) CSc1ncc(Cl)c(C(=O)Nc2ccc(C[C@H](NC(=O)c3cc(N(CCNC(C)C)C(C)C)ccc3[N+](=O)[O-])C(=O)O)cc2)n1
(d) CN(CCO)c1ccc([N+](=O)[O-])c(C(=O)NC(Cc2ccc(OCc3c(Cl)cccc3Cl)cc2)C(=O)O)c1 (stereo not shown)
INPUT: Rank ascending by IC50. // respond by listing labels in the order requested
OUTPUT: c, d, b, a
(c: 0.023 µM, d: 2.2 µM, b: 4.8 µM, a: 9.4 µM)
